Reference for the values: the supplement of paper PMC11061612

Test system: BE-13 (T-Lymphoblastic Leukemia);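 also: after 72 h of two-drug dosing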
methodNotes: Bliss excess, mean over the matrix (fraction); higher = more synergy
# Bliss excess per entry
Lab note: write the figure by itself, no unit.

The examples below pair each entry with its known result.
1) COc1cc2ncnc(Nc3ccc(F)c(Cl)c3)c2cc1OCCCN1CCOCC1 [Gefitinib] + CC(C)n1c(=O)n(C)c2cnc3cc(F)c(-c4ccc(OCCCN5CCCCC5)nc4)cc3c21 [AZD1390] (first compound max 10 µM, 7x7, partner max 0.3 µM) = -0.0956
2) CC1(C)CCC(CN2CCN(c3ccc(C(=O)NS(=O)(=O)c4ccc(NCC5CCOCC5)c([N+](=O)[O-])c4)c(Oc4cnc5[nH]ccc5c4)c3)CC2)=C(c2ccc(Cl)cc2)C1 [Venetoclax] + CCN(CCO)CCCOc1ccc2c(Nc3cc(CC(=O)Nc4cccc(F)c4)[nH]n3)ncnc2c1 [AZD2811] (first compound max 1 µM, 7x7, partner max 1 µM) = -0.0468
3) C=CCn1c(=O)c2cnc(Nc3ccc(N4CCN(C)CC4)cc3)nc2n1-c1cccc(C(C)(C)O)n1 [AZD1775] + CCc1c2c(nc3ccc(O)cc13)-c1cc3c(c(=O)n1C2)COC(=O)[C@]3(O)CC [SN-38] (first compound max 1 µM, partner max 0.3 µM) = -0.0186

Query :: Reported Bliss excess for BE-13 (T-Lymphoblastic Leukemia), given CN(CCO)CC[C@H](CSc1ccccc1)Nc1ccc(S(=O)(=O)NC(=O)c2ccc(N3CCC([C@@H](O)c4ccccc4-c4ccc(Cl)cc4)CC3)cc2)cc1S(=O)(=O)C(F)(F)F [AZD4320] + C=CCn1c(=O)c2cnc(Nc3ccc(N4CCN(C)CC4)cc3)nc2n1-c1cccc(C(C)(C)O)n1 [AZD1775] (first compound max 1 µM, partner max 1 µM) ?
Result :: 0.046

Query :: Also check C[C@@H](Nc1cc(F)cc(F)c1)c1cc(C(=O)N(C)C)cc2c(=O)cc(N3CCOCC3)oc12 [AZD8186] + CC(=O)c1c(C)c2cnc(Nc3ccc(N4CCNCC4)cn3)nc2n(C2CCCC2)c1=O [Palbociclib] (first compound max 10 µM, 7x7, partner max 10 µM)
Result :: -0.0165

Query :: Also check CC1(C)CCC(CN2CCN(c3ccc(C(=O)NS(=O)(=O)c4ccc(NCC5CCOCC5)c([N+](=O)[O-])c4)c(Oc4cnc5[nH]ccc5c4)c3)CC2)=C(c2ccc(Cl)cc2)C1 [Venetoclax] + CN(C)CCCOc1ccc(-c2ccc3ncc4c(c3c2)n(C2CCOCC2)c(=O)n4C)cn1 [AZD0156] (first compound max 1 µM, 7x7, partner max 1 µM)
Result :: 0.0084

Query :: Also check Cn1cnc2c(F)c(Nc3ccc(Br)cc3Cl)c(C(=O)NOCCO)cc21 [Selumetinib] + C[C@@H]1COCCN1C2=NC(=NC(=C2)C3(CC3)[S@](=N)(=O)C)C4=C5C=CNC5=NC=C4 [AZD6738] (first compound max 10 µM, 7x7, partner max 10 µM)
Result :: -0.0181
